Data origin, for the record: patent US20090304746A1

# experimental system: HLA-A*0201 (human)
Classify as follows. Reported binding affinity ratio (IC50 of standard peptide / IC50 of test peptide) greater than or equal to 0.0006: rule met. Reported binding affinity ratio (IC50 of standard peptide / IC50 of test peptide) below: rule not met.

>>> print(df.to_string())
                                     binder   class_label
0  AILSPGALVV (modifications not checked) [… (HCV polyprotein position 1890)]      rule met
1  YVGDLCGSV (modifications not checked) [HCV peptide … (A2 supermotif, position 276)]      rule met
2  PVYCFTPSPV (modifications not checked) [… (HCV polyprotein position 508)]  rule not met
3  TLTCGFADL (modifications not checked) [HCV peptide … (HCV polyprotein position 125)]  rule not met
